studySystem: T1, Myo2-GTD W1407A (Saccharomyces cerevisiae (strain S288c))
T1 chain: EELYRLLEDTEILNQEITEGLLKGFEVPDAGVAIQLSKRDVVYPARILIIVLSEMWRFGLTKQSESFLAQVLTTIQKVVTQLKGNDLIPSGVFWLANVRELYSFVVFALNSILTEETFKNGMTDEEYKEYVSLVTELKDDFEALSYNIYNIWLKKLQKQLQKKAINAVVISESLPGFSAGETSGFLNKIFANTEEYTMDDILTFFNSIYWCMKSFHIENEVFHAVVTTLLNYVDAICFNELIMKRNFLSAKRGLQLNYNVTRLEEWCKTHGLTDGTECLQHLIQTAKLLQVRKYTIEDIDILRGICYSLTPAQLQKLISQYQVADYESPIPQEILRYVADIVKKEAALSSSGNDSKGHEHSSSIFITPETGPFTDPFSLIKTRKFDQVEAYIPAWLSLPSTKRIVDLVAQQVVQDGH
measurementProtocol: ITC

binder	Kd
Kar9^C-MIS (Myo2-interacting sequence in the C-terminal region of Kar9) (domain or fragment) ALKGKKLGKALLQKMNIKPATSPNSSNAINPFFDPESPNKGKLILSSVPPLPY	7.5 µM
PNEAPNDSPQSQSTRSSLGSFQPRPLKIIERQRLCMVTPSKPPKKS (domain or fragment, Saccharomyces cerevisiae (strain S288c), UniProt P25591 112-157, looked up, Vac17 (vacuole-related protein 17), S. cerevisiae, region containing residues 112-157 (MIS); Named Trx-tagged in the light scattering; also called Trx-Vas17-MIS; Vac17-MIS wild-type; source: E. coli BL21(DE3), purified (Ni2+-NTA, size exclusion chromatography); not shown: Trx, N-terminal, kept) [Vac17-MIS (Myo2-interacting sequence of Vac17)]	0.45 µM
